Target: Furin (Homo sapiens) (UniProt P09958)
Sequence (P09958 whole entry, looked up): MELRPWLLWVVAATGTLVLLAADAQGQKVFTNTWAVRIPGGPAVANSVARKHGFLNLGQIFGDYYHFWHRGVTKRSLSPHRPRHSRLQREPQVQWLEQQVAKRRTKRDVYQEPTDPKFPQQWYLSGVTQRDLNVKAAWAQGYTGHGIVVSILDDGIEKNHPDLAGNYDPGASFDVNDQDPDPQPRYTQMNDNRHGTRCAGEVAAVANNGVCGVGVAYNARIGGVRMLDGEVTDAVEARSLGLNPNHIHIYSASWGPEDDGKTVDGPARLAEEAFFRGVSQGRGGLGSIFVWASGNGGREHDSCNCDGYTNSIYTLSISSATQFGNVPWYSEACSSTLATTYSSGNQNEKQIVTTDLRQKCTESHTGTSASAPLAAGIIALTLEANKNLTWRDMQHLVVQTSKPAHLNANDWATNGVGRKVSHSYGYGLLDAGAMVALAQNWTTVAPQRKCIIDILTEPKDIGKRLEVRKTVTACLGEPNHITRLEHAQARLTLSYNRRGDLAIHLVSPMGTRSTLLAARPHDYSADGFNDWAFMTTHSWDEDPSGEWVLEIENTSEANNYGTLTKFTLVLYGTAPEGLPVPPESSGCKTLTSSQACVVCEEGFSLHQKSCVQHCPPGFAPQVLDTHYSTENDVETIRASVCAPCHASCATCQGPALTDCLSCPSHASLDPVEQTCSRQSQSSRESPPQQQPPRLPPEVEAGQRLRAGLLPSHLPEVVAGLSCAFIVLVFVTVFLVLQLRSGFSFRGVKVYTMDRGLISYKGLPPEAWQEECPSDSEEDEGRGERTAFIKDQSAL
Assay: Furin counterscreen qHTS for Zika virus inhibitors (AID 1347149); further: nearly all actives have a fitted effect of over 70% in size; further: potency means the concentration at half of the fitted maximal effect
Conditions: furin enzymatic counterscreen, fluorogenic substrate; series mostly up to 57.5 µM
Records with an inconclusive call do not appear. Activity calls are given as the source filed them. The call rests on the fitted dose curve; in most records, active means well fitted inhibition curve with a large enough effect; inconclusive means small, poorly fitted or top-dose-only effect; inactive means no such curve, though single readings can be large or run the other way.
metric_name: Potency

A selection of reference data follows.
1) O=C(C1CC1)N1CC[C@@H](Cn2c(-c3ccc(-c4ccc5occc5c4)cc3)nc3cnccc32)C1 = 15.2 µM (active)
2) Cc1cc(SCc2sc(-c3ccc(C(F)(F)F)cc3)nc2C)ccc1OCC(=O)O = inactive
3) Cc1[nH]c(=O)c(C#N)cc1-c1ccc2nccn2c1 = inactive
4) CCCCNc1cc(C(=O)O)cc(S(N)(=O)=O)c1Oc1ccccc1 = 27 µM (active)

Request: # query: Potency of entry O=c1n(CCCN2CCN(c3cccc(Cl)c3)CC2)nc2ccccn12
Response: 24.1 µM (active)

Request: # query: Potency of entry CCN(CC)CCCC(C)Nc1ccnc2cc(Cl)ccc12 (configuration not stated)
Response: inactive

Request: # query: Potency of entry CCn1cc(C(=O)O)c(=O)c2cc(F)c(N3CCNC(C)C3)c(F)c21 (configuration not stated)
Response: 24.1 µM (active)

----------
Test: Identifying Small Molecule Inhibitors of Pancreatic Cancer Stem Cells (SN12C, Adherent) (AID 1259358);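 further: cell survival measured after 48 h of compound exposure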
Conditions: viability/growth inhibition; series mostly up to 46.1 µM
Inconclusive results are not listed. Activity calls are given as the source filed them. Calls follow the shape of the dose curve; as a rule, active = well fitted cell-killing curve with a large enough effect; inconclusive = small, poorly fitted or top-dose-only effect; inactive = flat fitted curve, though single readings scatter.
Write down the outcome that applies. Available outcomes: label 1 (active), label 0 (inactive)

Here's what some known entries look like.
1. Nc1nc2[nH]cc(CCc3ccc(C(=O)N[C@@H](CCC(=O)O)C(=O)O)cc3)c2c(=O)[nH]1 = label 1
2. CN(C)C(=O)c1ccc(S(=O)(=O)c2ccc(NC(=O)[C@@](C)(O)C(F)(F)F)c(Cl)c2)cc1 = label 0
3. CCC(C)n1ncn(-c2ccc(N3CCN(c4ccc(OC[C@H]5CO[C@](Cn6cncn6)(c6ccc(Cl)cc6Cl)O5)cc4)CC3)cc2)c1=O (stereo not given in full) = label 0
4. CCn1c(-c2nonc2N)nc2c(C#CC(C)(C)O)ncc(OC[C@H]3CCCNC3)c21 = label 0

Next, consider the following molecule.
Request: What was the test verdict on Oc1cccc(-c2nc(N3CCOCC3)c3oc4ncccc4c3n2)c1 ?
Response: label 1

----------
Assay: qHTS of pediatric cancer cell lines to identify multiple opportunities for drug repurposing: Primary screen for RD cells (AID 1347104); further: nearly all actives have a fitted effect of over 55% in size
Conditions: RD rhabdomyosarcoma viability, CellTiter-Glo luminescence, 48 h; series mostly up to 46 µM
Inconclusive results are not listed. Active and inactive are the calls of the source. The call rests on the fitted dose curve; in most records, active means well fitted cell-killing curve with a large enough effect; inconclusive means small, poorly fitted or top-dose-only effect; inactive means flat fitted curve, though single readings scatter.
Write down the outcome that applies. Available outcomes: class 1 (active), class 0 (inactive)

Here's what some known entries look like.
1. Cc1cc(Nc2nc(N[C@@H](C)c3ncc(F)cn3)ncc2Cl)n[nH]1 = class 1
2. C#Cc1cccc(Nc2ncnc3cc(OCCOC)c(OCCOC)cc23)c1 = class 0

Request: What was the test verdict on NCCCC(N)(C(=O)O)C(F)F (stereo not drawn) ?
Response: class 0

Request: What was the test verdict on CCCC(CCC)C(=O)O ?
Response: class 0

Request: What was the test verdict on Oc1cccc(-c2nc(N3CCOCC3)c3oc4ncccc4c3n2)c1 ?
Response: class 1

Request: What was the test verdict on CCn1cc(C(=O)O)c(=O)c2cc(F)c(N3CCNC(C)C3)c(F)c21 (stereo not drawn) ?
Response: class 0

Request: What was the test verdict on O=C1CCC(N2C(=O)c3ccccc3C2=O)C(=O)N1 (stereo not drawn) ?
Response: class 0

Request: What was the test verdict on CCCS(=O)(=O)Nc1ccc(F)c(C(=O)c2c[nH]c3ncc(Cl)cc23)c1F ?
Response: class 1
